Exercise: for every item that follows, state its recorded DC50.
Assayed System: BRAF G466V (Homo sapiens, UniProt P15056, G466V)
Construct: Horizon Discovery (HCT-116 BRAF−/− cells); host or cells: HCT-116 BRAF−/− cells, clone 8, lentiviral transduction
Sequence (P15056 whole entry G466V): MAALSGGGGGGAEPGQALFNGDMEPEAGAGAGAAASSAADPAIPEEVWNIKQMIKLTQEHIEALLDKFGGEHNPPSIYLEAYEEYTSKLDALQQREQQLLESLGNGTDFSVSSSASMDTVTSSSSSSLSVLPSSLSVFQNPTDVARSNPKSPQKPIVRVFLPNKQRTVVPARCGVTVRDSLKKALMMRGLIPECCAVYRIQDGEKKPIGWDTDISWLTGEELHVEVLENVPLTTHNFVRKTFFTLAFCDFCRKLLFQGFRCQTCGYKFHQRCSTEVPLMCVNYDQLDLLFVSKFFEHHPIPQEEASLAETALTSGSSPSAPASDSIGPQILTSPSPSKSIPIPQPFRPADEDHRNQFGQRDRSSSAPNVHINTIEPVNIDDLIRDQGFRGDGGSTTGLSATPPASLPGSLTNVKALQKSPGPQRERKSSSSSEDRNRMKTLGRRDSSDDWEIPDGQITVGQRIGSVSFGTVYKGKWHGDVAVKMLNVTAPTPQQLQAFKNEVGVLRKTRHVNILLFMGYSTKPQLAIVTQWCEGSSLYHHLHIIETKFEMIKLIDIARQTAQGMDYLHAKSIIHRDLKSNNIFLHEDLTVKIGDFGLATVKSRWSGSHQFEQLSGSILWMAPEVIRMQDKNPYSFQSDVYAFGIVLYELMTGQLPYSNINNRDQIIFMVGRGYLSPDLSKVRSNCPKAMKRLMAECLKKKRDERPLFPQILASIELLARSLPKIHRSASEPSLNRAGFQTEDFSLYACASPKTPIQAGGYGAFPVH
Test Summary: BRAF HiBiT degradation assay, C-terminal HiBiT-tagged BRAF G466V overexpressed in HCT-116 BRAF−/− cells (clone 8), Nano-Glo HiBiT Lytic assay
Format: cell-based
Condition Parameters: BRAF G466V (Class 3), HCT-116 BRAF−/− cells; DC50 at 50% degradation

{"Compound": "CCCS(=O)(=O)Nc1cccc(-c2nc(C3CCC4(CC3)CCN(C(=O)C3CCN(c5ccc(C6CCC(=O)NC6=O)cn5)CC3)CC4)sc2-c2ccnc(N)n2)c1F (racemic) [Compound 246]", "Assayed System": "BRAF G466V (Homo sapiens, UniProt P15056, G466V)", "DC50": "> 500 nM"}

Lab note: each compound below needs its DC50 filled in.
1. O=C1CC[C@H](c2ccc(N3CCC(CN4CCN(c5ccc(-n6cc(-c7cc(F)cc(NS(=O)(=O)N8CC[C@@H](F)C8)c7F)c(-c7ccncc7)n6)nc5)CC4)CC3)cc2)C(=O)N1 [Compound 302]
2. CCCS(=O)(=O)Nc1cccc(-c2nc(C3CCC4(CC3)CCN(C[C@H]3CC[C@H](Oc5ccc(C6CCC(=O)NC6=O)cn5)CC3)CC4)sc2-c2ccnc(N)n2)c1F (mixture of isomers) [Compound 257]
3. O=C1CC[C@H](c2ccc(N3CCC(CN4CCN(c5ccc(-n6cc(-c7cc(Cl)cc(NS(=O)(=O)N8CCCC8)c7F)c(-c7ccncc7)n6)cc5F)CC4)CC3)cc2)C(=O)N1 [Compound 364]

Ans:
1: < 10 nM; 2: > 500 nM; 3: < 10 nM
